The values you see were collected from ChEMBL document CHEMBL5537149.

experiment: Aqueous solubility of compound at pH 7.4 by HPLC analysis; type: physicochemical
Kindly state solubility for each of the entries shown.
Answers are plain numbers, in µM.

Worked cases, solubility given:
Compound: CCNc1nc(N2CCN(C(=O)c3cc(Cl)cc(Cl)c3)CC2)cc(C(F)(F)F)n1
Assay Metric: solubility
Test Value: 2
//
Compound: O=C(c1cc(Cl)cc(Cl)c1)N1CCN(c2ncnc3[nH]cnc23)CC1
Assay Metric: solubility
Test Value: 112

I'm hoping you can list solubility for every compound here, please.
1. CC(C)Nc1ccnc(N2CCN(S(=O)(=O)c3ccc(F)cc3)CC2)n1
2. CCNc1cc(C)nc(N2CCN(C(=O)c3cc(Cl)cc(Cl)c3)CC2)n1

1: 100; 2: 11

* * *

Provide the recorded Ratio EC50 for the entries that follow.
test system: Chikungunya virus; assay: Fold resistance , ratio of EC50 for antiviral activity against CHVB-resistant Chikungunya virus infected in African green monkey Vero cells to EC50 for antiviral activity against wildtype Chikungunya virus 899 infected in African green monkey Vero cells; format: functional
One number for each entry.

// for each compound in input: emit Ratio EC50
1. CCNc1nc(C)cc(N2CCN(C(=O)c3ccc(Br)cc3)CC2)n1
2. CCNc1nc(C)cc(N2CCN(C(=O)c3ccc([N+](=O)[O-])cc3)CC2)n1
3. CCNc1nc(C)cc(N2CCN(C(=O)c3cc(Cl)cc(Cl)c3)CC2)n1
4. CCNc1nc(C)cc(N2CCN(C(=O)c3cccc([N+](=O)[O-])c3)CC2)n1
5. CCNc1nc(C)cc(N2CCN(C(=O)c3ccc([N+](=O)[O-])cc3Cl)CC2)n1

1. 8.9
2. 14
3. 9.7
4. 13.3
5. 15.1

* * *

Record form. Attribute: selectivity ratio. Fill in for each entry.
assay: Selectivity index, ratio of CC50 for cytotoxicity against African green monkey Vero cells to EC50 for antiviral activity against Chikungunya virus infected in African green monkey Vero cells assessed as reduction in viral induced cell death; type: toxicity, cell-based; details: read-out: Ratio CC50/EC50

These recorded examples may help you get a feel for the data.
Compound: CCNc1cc(C)nc(N2CCCC(NC(=O)c3cc(Cl)cc(Cl)c3)C2)n1 (stereo not given)
Test Value: < 1.95

Compound: CCNc1nccc(N2CCN(C(=O)c3ccc(F)cc3)CC2)n1
Test Value: > 1.4

Compound: CCNc1cc(C)nc(N2CCN(C(=O)c3cc(Cl)cc(Cl)c3)CC2)n1
Test Value: > 1.5

Compound: CCNc1nc(C)cc(N2CCN(C(=O)c3cccc(Br)c3)CC2)n1
Test Value: > 107

Compound: CCNc1nc(C)cc(N2CCN(C(=O)c3cccc([N+](=O)[O-])c3)CC2)n1
Test Value: > 143

Return reported selectivity ratio values for all items listed beneath this line.
1. CCNc1nc(C)cc(N2CCN(C(=O)c3ccc(C)c(C)c3)CC2)n1
2. CCNc1cc(C)nc(N2CCC3(CCN(C(=O)c4ccc(Cl)cc4)C3)C2)n1 (stereo not given)
3. CCNc1nc(C)cc(N2CCN(C(=O)c3ccc([N+](=O)[O-])cc3)CC2)n1
4. CCNc1cc(C)nc(N2CCN(C(=O)c3ccc(Br)cc3)CC2)n1
5. CCNc1cc(C)nc(N2CC3CN(C(=O)c4ccc(Cl)cc4)CC3C2)n1 (stereo not given)

68
2.3
> 110
> 10
> 7.5
